Reported values of EC50 for individual entries
molecular target: T1, cyno EpCAM expressed on 293 cells (cynomolgus monkey); test: FACS of MMAE conjugates on 293 cells expressing cyno EpCAM, pH 7.4
T1 construct: whole, on cells; also called 293 cells expressing cyno EpCAM
T1 sequence (Q1WER1 24-314): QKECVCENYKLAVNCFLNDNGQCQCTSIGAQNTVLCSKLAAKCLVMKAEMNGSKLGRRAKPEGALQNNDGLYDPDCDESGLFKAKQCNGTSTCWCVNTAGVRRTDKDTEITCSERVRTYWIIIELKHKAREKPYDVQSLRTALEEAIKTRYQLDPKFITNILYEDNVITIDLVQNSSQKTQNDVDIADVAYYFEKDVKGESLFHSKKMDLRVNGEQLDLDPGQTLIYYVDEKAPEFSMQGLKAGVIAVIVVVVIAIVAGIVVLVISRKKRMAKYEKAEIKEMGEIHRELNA

{"columns": ["binder", "units-label", "EC50"],
 "data": [
  ["BA-105.4-01-02 8316-vcMMAE (antibody, V domains shown, antibody conjugated to vcMMAE; chain and residues of attachment not stated) VH: EVQLVQSGAEVKKPGESLRISCKGSGYTFTSYWMHWIRQSPSRGLEWLGYIRPSTGYTEYNQKFKDRVTISADKSISTAYLQWSSLKASDTAMYYCGRGDNWVGFANWGQGTLVTVSS VL: EIVLTQSPDFQSVTPKEKVTITCSASSSISYMHWYQQKPGKAPKLLIYSTSNLASGVPDRFSGSGSGTDFTLKISRVEAEDVGVYYCHQWSTYETFGQGTKVEIK", "µg/mL", 17.7],
  ["BA-105.4-02-01 8318-vcMMAE (antibody, V domains shown, antibody conjugated to vcMMAE; chain and residues of attachment not stated) VH: EVQLVQSGAEVKKPGATVKISCKVSGYTFTSYWMHWVRQAPGQGLEWMGYIRPSTGYTEYNQKFKDRFTISRDNSKNTLYLQMNSLRAEDTAVYYCGRGDNWVGFANWGQGTLVTVSS VL: EIVMTQSPATLSVSPGERATLSCSASSSISYMHWYQQKPGKAPKLLIYSTSNLASGVPSRFSGSGSGTEFTLTISSLQPDDFATYYCHQWSTYETFGQGTKVEIK", "µg/mL", 61.1],
  ["BA-105.4-01-05 8317-vcMMAE (antibody, V domains shown, antibody conjugated to vcMMAE; chain and residues of attachment not stated) VH: EVQLVQSGAEVKKPGATVKISCKVSGYTFTSYWMHWIRQPPGKGLEWIGYIRPSTGYTEYNQKFKDRFTISRDNSKNTLYLQMNSLRAEDTAVYYCGRGDNWVGFANWGQGTLVTVSS VL: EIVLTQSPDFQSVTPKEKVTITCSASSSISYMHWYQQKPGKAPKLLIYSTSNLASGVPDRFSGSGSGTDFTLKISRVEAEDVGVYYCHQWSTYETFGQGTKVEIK", "µg/mL", 43.4],
  ["BA-105-01-01 7376-vcMMAE (antibody, V domains shown, antibody conjugated to vcMMAE; chain and residues of attachment not stated) VH: QVQLQQSGAELAKPGASVKVSCKASGYTFTSYWMHWVKQRPGQGLEWIGYIRPSTGYTEYNQKFKDKATLTADKSSSTAYMQLSSLTFEDSAVYYCGRGDNWVGFANWGQGTLVTVSA VL: QIVLTQSPAIMSASLGEEIALTCSASSSISYMHWYQQKSGTSPKLLIYSTSNLASGVPSRFSGSGSGTFYSLTISSVEAEDAADYFCHQWSTYHTFGSGTKLEIK", "µg/mL", 1.74]
]}
